Hey, just so you know, these numbers are from PubChem BioAssay (NCATS).

test system: PA-1; assay: Primary qHTS to identify gynecologic anti-cancer compounds using libraries of approved drugs and bioactive compounds (AID 1345084); conditions: Gynecologic cancer cell panel viability, ATPlite luminescence, 48 h; series mostly up to 57.5 µM; note: nearly all actives have a fitted effect of over 55% in size
Inconclusive results are not listed. Active and inactive are the calls of the source. Calls come from the whole dose curve; as a rule, active = well fitted cell-killing curve with a large enough effect; inconclusive = small, poorly fitted or top-dose-only effect, or effect the other way; inactive = flat fitted curve, though single readings scatter.
Outcomes: 1.0 (active), 0.0 (inactive)

{"COMPOUND": "C=C(C)C1CC(O)C(C)C12CC(O)C1(C)OC1C2O (centres undefined)", "ASSIGNED LABEL": 1.0}
{"COMPOUND": "CC(=O)OC[C@]12[C@H](OC(C)=O)[C@H](OC(=O)c3ccccc3)[C@@H]3[C@@H](OC(C)=O)[C@]1(OC3(C)C)[C@H](C)C[C@H](OC(C)=O)[C@@H]2OC(=O)c1ccccc1", "ASSIGNED LABEL": 0.0}
{"COMPOUND": "CCC1C(=O)N(C)c2cnc(Nc3ccc(C(=O)NC4CCN(C)CC4)cc3OC)nc2N1C1CCCC1 (centres undefined)", "ASSIGNED LABEL": 1.0}
{"COMPOUND": "C=C1C(=O)O[C@@H]2[C@H]1CC(=O)[C@H](C)[C@@](O)(C(=O)/C=C/C)[C@H]2OC(=O)C(C)CC (some centres undefined)", "ASSIGNED LABEL": 1.0}
{"COMPOUND": "C=C1C(=O)O[C@@H]2C3C(=C(C)[C@@H](O)[C@@H](OC(=O)/C(=C/C)COC(C)=O)[C@@H]12)C(=O)[C@H]1O[C@@]31C (some centres undefined)", "ASSIGNED LABEL": 1.0}
{"COMPOUND": "C#CC(=O)N(c1ccc(OC)cc1OC)C(C(=O)NCC(=O)OCC)c1cccs1 (centres undefined)", "ASSIGNED LABEL": 1.0}
{"COMPOUND": "COc1cc(O)cc(/C=C/c2cccc(O)c2)c1", "ASSIGNED LABEL": 0.0}
{"COMPOUND": "C/C=C/C=C/C(=O)O[C@@H]1C=C2COC(=O)[C@]2(O)[C@@]2(C)CCCC(C)(C)[C@H]12", "ASSIGNED LABEL": 0.0}
{"COMPOUND": "COc1ccc(CCO[C@@H]2O[C@H](CO[C@H]3OC[C@](O)(CO)[C@H]3O)[C@@H](OC(=O)/C=C/c3ccc(O)c(O)c3)[C@H](O[C@@H]3O[C@@H](C)[C@H](O)[C@@H](O)[C@H]3O)[C@H]2O)cc1OC", "ASSIGNED LABEL": 0.0}
{"COMPOUND": "CC(OC1OCCN(Cc2n[nH]c(=O)[nH]2)C1c1ccc(F)cc1)c1cc(C(F)(F)F)cc(C(F)(F)F)c1 (centres undefined)", "ASSIGNED LABEL": 0.0}
{"COMPOUND": "C=C1C(=O)OC2C3=C(C)C(=O)CC3C(C)CC(O)C12 (centres undefined)", "ASSIGNED LABEL": 0.0}
{"COMPOUND": "NS(=O)(=O)c1ccc(N2CCN(CC[C@@H]3OCCc4ccccc43)CC2)cc1", "ASSIGNED LABEL": 0.0}
{"COMPOUND": "O=C(NCC1(N2CCN(c3ccccc3)CC2)CCOCC1)c1cccnc1Sc1ccccc1", "ASSIGNED LABEL": 0.0}
{"COMPOUND": "Cc1nc2cc(C(=O)NCc3ccccn3)nn2c(C)c1Cc1cccc(Cl)c1", "ASSIGNED LABEL": 0.0}
{"COMPOUND": "Cc1cc(-c2nc3cc(F)ccc3s2)ccc1NC(=O)[C@@H](N)CCCCN", "ASSIGNED LABEL": 1.0}
{"COMPOUND": "C/C=C/C=C/C=C/C(=O)O[C@@H]1C=C2COC(=O)[C@]2(O)[C@@]2(C)CCCC(C)(C)[C@H]12", "ASSIGNED LABEL": 0.0}
{"COMPOUND": "CC(C)[C@@H](c1ccc(C(F)(F)F)cc1CN(Cc1cc(C(F)(F)F)cc(C(F)(F)F)c1)c1nnn(C)n1)N1CCC(C(=O)O)CC1", "ASSIGNED LABEL": 0.0}
{"COMPOUND": "CN1CCC(NC(=O)c2cc(-c3c(O)cc(O)cc3Oc3ccc([N+](=O)[O-])cc3)on2)CC1", "ASSIGNED LABEL": 1.0}
{"COMPOUND": "C=C(C)C(=O)O[C@H]1/C(C=O)=C\\CC/C(CO)=C/[C@H]2OC(=O)C(=C)[C@@H]2[C@@H]1OC", "ASSIGNED LABEL": 0.0}
{"COMPOUND": "CC(C)(C)OC(=O)c1ncn2c1C(C)(C)Nc1ccccc1-2", "ASSIGNED LABEL": 0.0}
{"COMPOUND": "COc1c(C(C)C)c(O)c(O)c2c1C(OC)[C@H]1OC(=O)[C@@]23CCCC(C)(C)[C@H]13 (some centres undefined)", "ASSIGNED LABEL": 0.0}
{"COMPOUND": "Cc1csc(N(C(=O)CSc2ccc(-c3ccccc3)nn2)C2CC2)n1", "ASSIGNED LABEL": 0.0}
{"COMPOUND": "CCN(c1cc(-c2ccc(CN3CCOCC3)cc2)cc(C(=O)NCc2c(C)cc(C)[nH]c2=O)c1C)C1CCOCC1", "ASSIGNED LABEL": 0.0}
{"COMPOUND": "O=C(/C=C/c1ccccc1O)O[C@@H]1O[C@H](CO)[C@@H](O)[C@H](O)[C@H]1O", "ASSIGNED LABEL": 0.0}
{"COMPOUND": "C/C=C(\\C)C(=O)OC1C(C)C2(O)C(C=C(CO)CC3(O)C(=O)C(C)=CC32)C2C(C)(C)C12OC(=O)C(C)C (centres undefined)", "ASSIGNED LABEL": 0.0}
{"COMPOUND": "N#Cc1ccc(O[C@@H]2c3ccccc3C[C@H]2N2CCC[C@@H](N)C2)c(Cl)c1", "ASSIGNED LABEL": 0.0}
{"COMPOUND": "C=C1C(=O)O[C@@H]2[C@H]1CC[C@H](C)[C@]1(CCC(=O)O1)C2(C)O (some centres undefined)", "ASSIGNED LABEL": 0.0}
{"COMPOUND": "COc1cc(/C=C/C(=O)NCCn2c(C(F)(F)F)cc3ccccc32)cc(OC)c1OC", "ASSIGNED LABEL": 0.0}
{"COMPOUND": "C=C1CC[C@@H]2[C@](C)(CO)[C@H](O)CC[C@@]2(C)[C@@H]1/C=C/C1=CCOC1=O", "ASSIGNED LABEL": 0.0}
{"COMPOUND": "COC(CCc1ccc(O)cc1)CC(=O)CCc1ccc(O)cc1 (centres undefined)", "ASSIGNED LABEL": 0.0}
{"COMPOUND": "CCOc1cc(C(C)(C)C)ccc1C1=NC(C)(c2ccc(Cl)cc2)C(C)(c2ccc(Cl)cc2)N1C(=O)N1CCN(CCCS(C)(=O)=O)CC1 (centres undefined)", "ASSIGNED LABEL": 1.0}
{"COMPOUND": "C=C1C(=O)O[C@@H]2C[C@H](C)C3=CC(=O)[C@H](O)[C@@]3(C)C[C@H]12", "ASSIGNED LABEL": 0.0}
{"COMPOUND": "COc1cc(C[C@H]2C(=O)OC[C@@H]2Cc2ccc(OC)c(OC)c2)ccc1O", "ASSIGNED LABEL": 0.0}
{"COMPOUND": "O=S(=O)(NCc1ccccn1)c1ccc(Br)c2ccccc12", "ASSIGNED LABEL": 0.0}
